Measurement description: Metabolic stability in rat liver microsomes assessed as half life at […] measured up to 240 mins in presence of NADPH regeneration system by LC-MS analysis
Format: ADME, Microsome
Observation type: half-life

# Structure, half-life
records = [
    ("CCOC(=O)c1cnn(-c2ccc(NC(=O)C(Cl)=C(Cl)Cl)cc2)c1C(F)(F)F", "< 0.25 h"),
]

Req: Input `CCNC(=O)c1cnn(-c2ccc(-n3ccc(Cl)c(Cl)c3=O)cc2)c1C(F)(F)F` , output reported half-life.
Resp: > 4 h

###

Experimental system: Short transient receptor potential channel 3 (Homo sapiens, UniProt Q13507)
Sequence (Q13507 whole entry): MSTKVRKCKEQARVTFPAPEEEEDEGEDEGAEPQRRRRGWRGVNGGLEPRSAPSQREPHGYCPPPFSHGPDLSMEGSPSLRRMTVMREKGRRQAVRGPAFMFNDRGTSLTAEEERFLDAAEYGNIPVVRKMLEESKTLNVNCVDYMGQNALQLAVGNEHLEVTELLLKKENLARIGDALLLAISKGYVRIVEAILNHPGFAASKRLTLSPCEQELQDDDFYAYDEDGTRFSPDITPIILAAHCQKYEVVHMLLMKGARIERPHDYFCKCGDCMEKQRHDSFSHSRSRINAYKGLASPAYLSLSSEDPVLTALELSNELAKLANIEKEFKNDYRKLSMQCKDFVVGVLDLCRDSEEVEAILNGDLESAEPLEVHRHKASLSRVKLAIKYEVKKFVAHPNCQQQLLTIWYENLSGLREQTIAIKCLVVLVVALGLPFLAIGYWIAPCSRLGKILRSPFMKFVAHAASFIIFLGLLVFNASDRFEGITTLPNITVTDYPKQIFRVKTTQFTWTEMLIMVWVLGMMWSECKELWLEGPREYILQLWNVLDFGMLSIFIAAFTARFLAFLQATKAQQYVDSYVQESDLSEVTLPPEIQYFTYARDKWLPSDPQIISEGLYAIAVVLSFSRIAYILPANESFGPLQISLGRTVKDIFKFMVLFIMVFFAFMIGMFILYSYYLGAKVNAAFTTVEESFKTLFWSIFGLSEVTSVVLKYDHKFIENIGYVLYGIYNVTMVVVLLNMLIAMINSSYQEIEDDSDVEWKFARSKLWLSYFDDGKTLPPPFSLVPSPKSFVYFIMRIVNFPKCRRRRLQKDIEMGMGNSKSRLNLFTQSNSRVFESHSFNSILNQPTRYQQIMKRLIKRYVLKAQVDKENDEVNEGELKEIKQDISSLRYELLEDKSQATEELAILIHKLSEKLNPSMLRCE
Measurement description: Inhibition of human TRPC3 expressed in HEK293 cells assessed as inhibition of GSK170-induced current in absence of extracellular calcium by whole cell patch-clamp method
Assay type: cell-based
Observation type: IC50 (nM)
Give bare numbers, in nM.

Req: Specify reported IC50 for the compound shown: `CCOC(=O)c1cnn(-c2ccc(NC(=O)C(Cl)=C(Cl)Cl)cc2)c1C(F)(F)F`
Resp: 530

Source: ChEMBL document CHEMBL4706728
